Target: Soluble human FGFR1c/KLB receptor complex (FGFR1c ectodomain-Fc with soluble KLB) (human, UniProt P11362 22-376; Q86Z14 1-996)
Sequence (P11362 22-376, chain 1 of 2): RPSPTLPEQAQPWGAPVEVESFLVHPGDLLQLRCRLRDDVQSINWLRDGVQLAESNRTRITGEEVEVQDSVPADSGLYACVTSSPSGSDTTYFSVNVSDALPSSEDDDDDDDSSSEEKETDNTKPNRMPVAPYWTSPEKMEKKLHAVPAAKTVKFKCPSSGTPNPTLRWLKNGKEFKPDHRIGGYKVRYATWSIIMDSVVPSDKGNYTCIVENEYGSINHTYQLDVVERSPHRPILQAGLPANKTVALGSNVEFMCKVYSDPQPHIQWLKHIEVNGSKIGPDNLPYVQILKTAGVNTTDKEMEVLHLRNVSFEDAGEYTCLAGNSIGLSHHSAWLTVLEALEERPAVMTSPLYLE
Sequence (Q86Z14 53-996, chain 2 of 2): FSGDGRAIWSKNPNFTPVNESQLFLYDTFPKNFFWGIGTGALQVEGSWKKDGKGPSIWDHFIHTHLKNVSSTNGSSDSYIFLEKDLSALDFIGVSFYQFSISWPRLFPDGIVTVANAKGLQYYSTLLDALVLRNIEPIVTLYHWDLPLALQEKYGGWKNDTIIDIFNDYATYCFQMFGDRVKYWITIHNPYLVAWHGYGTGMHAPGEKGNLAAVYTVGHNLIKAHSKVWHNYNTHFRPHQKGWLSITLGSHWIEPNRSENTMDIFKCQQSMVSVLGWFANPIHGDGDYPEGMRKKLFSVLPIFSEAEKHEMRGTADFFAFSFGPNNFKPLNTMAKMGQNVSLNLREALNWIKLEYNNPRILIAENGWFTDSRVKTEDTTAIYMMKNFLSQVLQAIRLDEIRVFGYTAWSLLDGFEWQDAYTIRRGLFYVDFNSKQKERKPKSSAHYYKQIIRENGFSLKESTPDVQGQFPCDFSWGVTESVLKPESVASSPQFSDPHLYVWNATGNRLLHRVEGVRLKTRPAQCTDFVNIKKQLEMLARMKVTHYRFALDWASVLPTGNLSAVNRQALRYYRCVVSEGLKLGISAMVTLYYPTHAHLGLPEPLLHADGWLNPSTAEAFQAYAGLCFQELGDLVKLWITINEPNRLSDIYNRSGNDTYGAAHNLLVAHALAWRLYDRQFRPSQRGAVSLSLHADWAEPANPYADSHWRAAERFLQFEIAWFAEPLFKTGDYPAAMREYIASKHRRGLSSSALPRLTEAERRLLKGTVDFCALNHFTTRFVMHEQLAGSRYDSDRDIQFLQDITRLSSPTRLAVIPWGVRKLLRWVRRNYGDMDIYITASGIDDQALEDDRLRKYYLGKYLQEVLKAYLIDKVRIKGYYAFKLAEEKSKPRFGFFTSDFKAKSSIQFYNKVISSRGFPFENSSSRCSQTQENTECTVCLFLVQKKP
Experiment: AlphaScreen competition with biotinylated FGF21
Ends that are not written are not given here.
PARAMETER: IC50 (nM)
Please respond with the number in nM and leave the unit unwritten.

Q) Endpoint output: IC50 of PPDVGSSDPLSMVGPSQGRSPSYAS-NH2 [21C25 (C-terminal 25-residue peptide of FGF21)] . Value?
A) 150
